Could you please report measured viability at 28.5 h, 10 µM for the items listed next?
- test_description: in vitro
- particulars: human, hela cells, % viability
Write the answer as a number in %, unit excluded.

Reported viability at 28.5 h, 10 µM, molecule `N#Cc1ccc(OCC(=O)Nc2cccnc2-n2cncn2)cc1` : ____
85.9

Query (molecule): `Cc1ccc2[nH]c3c(c2c1)CCNC31CCN(C(=O)[C@@H]2CCCC[C@@H]2C(=O)O)CC1` ; field requested: viability at 28.5 h, 10 µM
89.9

Item O=C(O)C1Nc2ccc(Oc3ccccc3)cc2C2C=CCC12 (stereo not shown) has what recorded viability at 28.5 h, 10 µM?
80.8

What measured viability at 28.5 h, 10 µM goes with `Cc1ccccc1Sc1ccc(C(F)(F)F)cn1` ?
112

Dear colleague, I am looking for the recorded viability at 28.5 h, 10 µM of the following molecule: O=C(O)C1CCCN(C(=O)NCc2ccc(F)cc2)C1 (stereo not shown)
95.7

Entry `CN1CCC(C(=O)N2CCN(CCc3ccccc3)CC2)CC1` : reported viability at 28.5 h, 10 µM = ?
103

Fill blank: measured viability at 28.5 h, 10 µM of the molecule `Clc1ccc(OCCOc2ccccc2)nn1` is ____.
86.7

Query: viability at 28.5 h, 10 µM; subject: CCCCNC(=O)N(O)C1N(C)C(=S)SC1(C)C (stereo not shown)
91.2

Query: viability at 28.5 h, 10 µM; subject: COc1ccc(Cn2nnnc2C(CC(C)C)N2CCC(C(N)=O)CC2)cc1 (stereo not shown)
90

Value lookup for viability at 28.5 h, 10 µM; key = `CC(C)CNc1nc(SCC(N)=O)nc(N(C)C)n1`
93.8

###

- test_description: in vitro
- particulars: human, hela cells, % viability
Assignment: determine reported viability at 28.5 h, 10 µM for the given compounds.
Value expressed in %; do not type the unit.

Quick one: viability at 28.5 h, 10 µM of `Cc1cccc(-c2ncc(NC(=O)COc3ccc4ccccc4c3)nc2-c2ccc(N(C)C)cc2)c1` ?
111

Item `C[C@@H](c1ccccc1)n1c(=O)[nH]c2ncc(-c3cncc4ccccc34)nc21` has what recorded viability at 28.5 h, 10 µM?
73.9

Entry `COc1ccc(-c2c(C)nn(-c3ccc(Cl)nn3)c2C)c(C(=O)O)c1` : reported viability at 28.5 h, 10 µM = ?
107

Looking for the measured viability at 28.5 h, 10 µM of CCCOc1ccc(N2C(=O)CC(N3CCC(C(=O)O)CC3)C2=O)cc1 (stereo not shown) , can you help?
102

###

Please go through the items and note down their viability at 28.5 h, 10 µM.
- test_description: in vitro
- particulars: human, hela cells, % viability
Give the quantity in %, number only.

I'd like to know its viability at 28.5 h, 10 µM. The compound in question is C[C@@H]1CN2CCCC2CN1Cc1ccc2ncccc2c1 (stereo partly shown)
99.3

Entry COc1ccc(OCCN2CCC(C(=O)NC(c3ccccn3)c3ccccc3OC)CC2)cc1 (stereo not shown) : reported viability at 28.5 h, 10 µM = ?
86.3

I have this compound here, `CCS(=O)(=O)N1CCc2cc(-c3csc(-c4cnn(C)c4)n3)ccc21` , and I need its recorded viability at 28.5 h, 10 µM.
93.7

Need viability at 28.5 h, 10 µM, item `COC(=O)Cn1c(-c2ccc(F)cc2)cc2cccnc21`
91.5

Find the recorded viability at 28.5 h, 10 µM belonging to O=C(CCc1ccncc1)N1CCOC(c2ccc(F)cc2F)C1 (stereo not shown) and report it.
98.3

For the compound shown here, `Cc1cc(NC(=O)C2CCCC2)nc2c1c(=O)oc1ccccc12` , give the reported viability at 28.5 h, 10 µM.
93.2

Endpoint output: viability at 28.5 h, 10 µM of COC(=O)c1c(NC(=O)CC2SCC(C(=O)OC)NC2=O)sc2c1CCCC2 (stereo not shown) . Value?
94.5

Need viability at 28.5 h, 10 µM, item `O=C(O)c1cc(S(=O)(=O)N2CCCCC2)c(Cl)cc1N1CCCCC1`
93.5

What value of measured viability at 28.5 h, 10 µM is listed for CC(=O)N(C)c1nc(-c2cccc(N(C)C)c2)ccc1C(=O)NC1CCS(=O)(=O)C1 (stereo not shown) ?
103

Entry C/C(C(=O)O)=C(/C)C(=O)N1CCC2(C1)NCCc1c2[nH]c2ccccc12 (stereo not shown) has what viability at 28.5 h, 10 µM?
100

Look at this compound and give its reported viability at 28.5 h, 10 µM. COc1ccc(CC(C(=O)Nc2ccc3nc[nH]c(=O)c3c2)c2ccccc2)cc1 (stereo not shown)
94.3

Param item = CCOC(=O)N1CCN(CC(=O)N2c3ccccc3CCc3ccccc32)CC1 [CBK268744G] ; retrieve measured viability at 28.5 h, 10 µM.
111

I'd like to know its viability at 28.5 h, 10 µM. The compound in question is `CC(C)(C)OC(=O)N1CCN(CCC(=O)O)CC1`
101

Field request: viability at 28.5 h, 10 µM | item: `O=C(O)[C@H](Cc1ccccc1)Nc1ncnc2[nH]cnc12`
87

Quick one: viability at 28.5 h, 10 µM for `OCCN(CCO)c1ccccc1N(CCO)CCO` ?
85.7

Endpoint output: viability at 28.5 h, 10 µM of `CCOc1ccc(Nc2cc(Cl)nc(N)n2)cc1` . Value?
98.7

Which measured viability at 28.5 h, 10 µM value corresponds to `CC1=C[C@@H](CO)[C@H](C(C)C)C[C@H]1Cc1nnc(-c2ccc(N(C)C)cc2)o1` ?
65

Fill in the blank: the reported viability at 28.5 h, 10 µM of `CC(=O)N1CCc2nc(C)nc(N(C)Cc3cnn(C(C)C)c3)c2CC1` is ____.
83.1

Data request, read-out viability at 28.5 h, 10 µM, for Cn1cc(Cl)c(C2CCCCCN2C(=O)c2ccco2)n1 (stereo not shown)
96.5
